Measured CC50, listed per entry.
System: UT7/EpoS1 cells
test_name: Cell cytotoxicity assay (alamarBlue HS) in UT7/EpoS1 cells
Format: cell-based
experimental_conditions: 6 h + 48 h with compound, alamarBlue, table: mean (95% CI)
// note: answer is a bare numeric in µM

molecule	value_kind	reported_value
CC(Nc1nc(N2CCCC2)nc2ccccc12)c1ccccc1 (centres unmarked)	CC50	30

Now turn to the next molecule.
Query :: Lookup: CC50 / UT7/EpoS1 cells / `CC[C@H](C)[C@H]1O[C@]2(CC[C@@H]1C)C[C@@H]1C[C@@H](C/C=C(\C)[C@@H](O[C@H]3C[C@H](OC)[C@@H](O[C@H]4C[C@H](OC)[C@@H](O)[C@H](C)O4)[C@H](C)O3)[C@@H](C)/C=C/C=C3\CO[C@@H]4[C@H](O)C(C)=C[C@@H](C(=O)O1)[C@]34O)O2`
Result :: 14.5
